Recorded measurements of pIC50, one per entry
target: Kdr (Homo sapiens, UniProt P35968); construct: Kinases are expressed as either kinase domains or full length constructs; made in house; assay: Kinase inhibition assay (33P transfer), Kdr; type: biochemical; conditions: read-out: KDR-1
Sequence (P35968 20-1356, species assumed): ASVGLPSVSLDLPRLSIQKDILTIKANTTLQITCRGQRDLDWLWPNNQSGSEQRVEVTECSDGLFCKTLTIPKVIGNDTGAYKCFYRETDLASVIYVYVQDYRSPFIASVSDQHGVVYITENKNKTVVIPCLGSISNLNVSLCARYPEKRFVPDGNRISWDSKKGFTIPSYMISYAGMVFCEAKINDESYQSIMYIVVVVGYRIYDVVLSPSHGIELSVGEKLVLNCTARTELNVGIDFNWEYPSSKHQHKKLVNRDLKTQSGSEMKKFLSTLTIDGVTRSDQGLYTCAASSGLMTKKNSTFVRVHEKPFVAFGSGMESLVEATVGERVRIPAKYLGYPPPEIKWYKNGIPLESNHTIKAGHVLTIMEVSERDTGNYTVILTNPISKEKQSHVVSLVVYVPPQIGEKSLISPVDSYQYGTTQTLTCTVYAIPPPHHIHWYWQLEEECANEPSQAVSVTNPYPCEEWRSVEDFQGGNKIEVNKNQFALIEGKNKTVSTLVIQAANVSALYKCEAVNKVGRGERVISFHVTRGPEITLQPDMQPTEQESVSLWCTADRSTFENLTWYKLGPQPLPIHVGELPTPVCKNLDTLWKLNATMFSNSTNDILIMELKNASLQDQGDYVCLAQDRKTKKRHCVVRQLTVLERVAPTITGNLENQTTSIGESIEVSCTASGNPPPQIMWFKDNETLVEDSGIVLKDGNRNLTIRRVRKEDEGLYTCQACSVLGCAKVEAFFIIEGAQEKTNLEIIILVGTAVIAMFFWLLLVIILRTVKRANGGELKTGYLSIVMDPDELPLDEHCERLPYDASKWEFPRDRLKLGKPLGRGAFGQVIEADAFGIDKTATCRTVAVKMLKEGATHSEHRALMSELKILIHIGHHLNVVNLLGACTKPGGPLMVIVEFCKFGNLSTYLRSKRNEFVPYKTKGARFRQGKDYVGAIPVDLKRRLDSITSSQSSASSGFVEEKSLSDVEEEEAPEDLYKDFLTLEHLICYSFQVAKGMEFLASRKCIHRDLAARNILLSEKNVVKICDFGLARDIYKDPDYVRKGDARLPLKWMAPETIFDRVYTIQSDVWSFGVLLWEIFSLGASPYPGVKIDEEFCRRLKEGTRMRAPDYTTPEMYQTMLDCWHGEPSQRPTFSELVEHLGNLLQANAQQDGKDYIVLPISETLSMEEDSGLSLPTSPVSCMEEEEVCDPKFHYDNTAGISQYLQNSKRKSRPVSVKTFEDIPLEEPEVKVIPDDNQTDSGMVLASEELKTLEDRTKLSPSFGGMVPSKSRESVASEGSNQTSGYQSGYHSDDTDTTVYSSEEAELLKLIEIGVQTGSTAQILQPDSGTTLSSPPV
pIC50: −log10 of the molar value.

# Smiles String, pIC50
data = [
    ("COc1ccc(CCNc2ncnc(N3CCCc4cc(C)ccc43)n2)cc1OC", "5.06 to 5.23"),
    ("COc1cc(Nc2ncnc(N[C@H]3CCCc4ccccc43)n2)cc(OC)c1OC", "5.07 to 5.23"),
    ("CCOc1cccc(Nc2ncnc(Nc3ccc(OC)c(OC)c3)n2)c1", "4.91 to 5.02"),
    ("CC(C)(C)OC(=O)NCc1cccc(Nc2ncnc(Nc3cc(-c4ccccc4)n[nH]3)n2)c1", "5.28 to 6.06"),
    ("CC(C)(C)c1cc(Nc2ncnc(Nc3ccc(CC(=O)O)cc3)n2)[nH]n1", "< 4.91"),
    ("COc1cc(Nc2ncnc(-n3c(NCc4ccc(N(C)C)cc4)nc4ccccc43)n2)cc(OC)c1OC", "5.34 to 6.12"),
    ("COc1ccc(CNc2nc3ccccc3n2-c2ncnc(Nc3cc(OC)c(OC)c(OC)c3)n2)cc1OC", "5.08 to 5.19"),
    ("Nc1ncnc(Nc2ccc3c(cnn3Cc3ccccc3)c2)n1", "< 4.85"),
]

###

This listing pairs compounds with measured IC50.
molecular target: EGFR (Homo sapiens, UniProt P00533); construct: Kinases are expressed as either kinase domains or full length constructs; made in house; experiment: Kinase inhibition assay (33P transfer), EGFR; type: biochemical; details: Table 2, kinase inhibition class; read-out: EGFR-1
Sequence (P00533 25-1210, species assumed): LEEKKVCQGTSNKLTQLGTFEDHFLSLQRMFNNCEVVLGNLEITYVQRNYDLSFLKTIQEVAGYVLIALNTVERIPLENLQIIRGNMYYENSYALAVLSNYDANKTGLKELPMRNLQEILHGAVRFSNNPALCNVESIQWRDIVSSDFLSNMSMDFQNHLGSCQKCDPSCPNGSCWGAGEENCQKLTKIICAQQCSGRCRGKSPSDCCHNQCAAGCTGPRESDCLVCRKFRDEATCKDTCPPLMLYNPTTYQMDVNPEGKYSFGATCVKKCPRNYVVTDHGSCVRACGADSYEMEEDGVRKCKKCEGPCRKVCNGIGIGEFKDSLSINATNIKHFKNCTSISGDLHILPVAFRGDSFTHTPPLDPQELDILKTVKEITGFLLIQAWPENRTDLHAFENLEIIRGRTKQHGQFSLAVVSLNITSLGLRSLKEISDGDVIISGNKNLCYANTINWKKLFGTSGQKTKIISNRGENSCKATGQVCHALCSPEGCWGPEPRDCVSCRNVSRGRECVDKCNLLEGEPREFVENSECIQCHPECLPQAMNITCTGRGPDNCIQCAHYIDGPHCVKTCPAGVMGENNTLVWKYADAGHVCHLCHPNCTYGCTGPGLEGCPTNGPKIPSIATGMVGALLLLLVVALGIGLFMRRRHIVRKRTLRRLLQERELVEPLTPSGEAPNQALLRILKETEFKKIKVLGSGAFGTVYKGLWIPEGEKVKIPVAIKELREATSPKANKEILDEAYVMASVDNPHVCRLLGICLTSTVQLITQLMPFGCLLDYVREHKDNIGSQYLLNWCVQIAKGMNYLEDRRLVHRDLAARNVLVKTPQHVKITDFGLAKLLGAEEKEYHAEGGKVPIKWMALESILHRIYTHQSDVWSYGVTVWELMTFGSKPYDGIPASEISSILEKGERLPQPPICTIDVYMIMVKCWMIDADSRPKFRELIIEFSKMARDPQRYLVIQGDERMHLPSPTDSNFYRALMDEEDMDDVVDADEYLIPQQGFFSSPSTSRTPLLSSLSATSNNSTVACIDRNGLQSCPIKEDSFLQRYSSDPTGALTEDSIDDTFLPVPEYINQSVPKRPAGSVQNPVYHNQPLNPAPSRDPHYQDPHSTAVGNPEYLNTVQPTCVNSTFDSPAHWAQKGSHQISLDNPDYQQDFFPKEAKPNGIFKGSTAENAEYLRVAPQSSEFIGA
Readout Label: IC50

# Compound, Target Or Test System, Endpoint Value
records = [
    ("COc1ccc(Nc2ncnc(Nc3cc(-c4ccccc4)n[nH]3)n2)cc1OC [Compound 977]", "EGFR (Homo sapiens, UniProt P00533)", "1.03 to 6.16 µM"),
    ("CN(C)c1ccc(Nc2ncnc(-n3c(N)nc4ccccc43)n2)cc1 [Compound 527]", "EGFR (Homo sapiens, UniProt P00533)", "6.93 to 10.1 µM"),
    ("COc1ccccc1Nc1nc2ccccc2n1-c1ncnc(Nc2cc(OC)c(OC)c(OC)c2)n1 [Compound 398]", "EGFR (Homo sapiens, UniProt P00533)", "> 9.01 µM"),
    ("Nc1nc2ccccc2n1-c1ncnc(Nc2ccc3c(c2)OCO3)n1 [Compound 526]", "EGFR (Homo sapiens, UniProt P00533)", "1.15 to 6.91 µM"),
    ("CCOC(=O)Cc1cn(-c2ncnc(Nc3cc(OC)c(OC)c(OC)c3)n2)c2ccccc12 [Compound 411]", "EGFR (Homo sapiens, UniProt P00533)", "> 9.71 µM"),
    ("Cc1cccc(Nc2ncnc(Nc3ccc4[nH]ccc4c3)n2)c1 [Compound 110]", "EGFR (Homo sapiens, UniProt P00533)", "< 1.26 µM"),
    ("COc1ccc(-c2ncnc(Nc3cc(OC)c(OC)c(OC)c3)n2)cc1OC [Compound 230]", "EGFR (Homo sapiens, UniProt P00533)", "8.78 to 11.3 µM"),
    ("COC(=O)c1ccc(-c2cc(Nc3ncnc(Nc4cccc(C(N)=O)c4)n3)[nH]n2)cc1 [Compound 990]", "EGFR (Homo sapiens, UniProt P00533)", "> 10.5 µM"),
    ("O=c1[nH]c2ccccc2n1-c1ncnc(Nc2cc(Cl)cc(Cl)c2)n1 [Compound 503]", "EGFR (Homo sapiens, UniProt P00533)", "> 12.1 µM"),
    ("Nc1nc2ccccc2n1-c1ncnc(N2C(=O)c3ccccc3C2=O)n1 [Compound 653]", "EGFR (Homo sapiens, UniProt P00533)", "> 12.6 µM"),
    ("COc1cc(Nc2ncnc(Nc3ccccn3)n2)cc(OC)c1OC [Compound 40]", "EGFR (Homo sapiens, UniProt P00533)", "> 12.7 µM"),
    ("Nc1nc2ccccc2n1-c1ncnc(Cl)n1 [Compound 1029]", "EGFR (Homo sapiens, UniProt P00533)", "> 18.2 µM"),
    ("COCCOc1ccc(Nc2ncnc(Nc3ccc(C)c(F)c3)n2)cc1OCCOC [Compound 322]", "EGFR (Homo sapiens, UniProt P00533)", "> 10.1 µM"),
    ("Clc1ncnc(Nc2cc(-c3ccccc3)n[nH]2)n1 [Compound 976]", "EGFR (Homo sapiens, UniProt P00533)", "> 16.5 µM"),
    ("COc1cc(Nc2ncnc(NC(=O)NCCc3ccccc3)n2)cc(OC)c1OC [Compound 661]", "EGFR (Homo sapiens, UniProt P00533)", "> 10.6 µM"),
    ("COc1cc(Nc2ncnc(Nc3cc(F)ccc3F)n2)cc(OC)c1OC [Compound 316]", "EGFR (Homo sapiens, UniProt P00533)", "1.03 to 6.16 µM"),
    ("O=c1[nH]c2ccccc2n1-c1ncnc(Nc2ccc(Cl)cc2)n1 [Compound 458]", "EGFR (Homo sapiens, UniProt P00533)", "> 13.3 µM"),
    ("COc1cc(Nc2ncnc(Nc3cccc(OC(F)(F)F)c3)n2)cc(OC)c1OC [Compound 250]", "EGFR (Homo sapiens, UniProt P00533)", "< 0.915 µM"),
    ("COc1cc(Nc2ncnc(Nc3cc(-c4ccc(Cl)c(Cl)c4)n[nH]3)n2)cc(OC)c1OC [Compound 589]", "EGFR (Homo sapiens, UniProt P00533)", "4.91 to 7.17 µM"),
    ("COc1cc(Nc2ncnc(-n3ccc4ccccc43)n2)cc(OC)c1OC [Compound 185]", "EGFR (Homo sapiens, UniProt P00533)", "> 11.9 µM"),
    ("COc1cc(Nc2ncnc(Nc3cccc4ccccc34)n2)cc(OCCN2CCOCC2)c1OC [Compound 953]", "EGFR (Homo sapiens, UniProt P00533)", "< 0.796 µM"),
    ("COc1cc(Nc2ncnc(Nc3ccc(Br)c4ccccc34)n2)cc(OC)c1OC [Compound 613]", "EGFR (Homo sapiens, UniProt P00533)", "0.829 to 4.98 µM"),
    ("Nc1ncnc(-n2c(N)nc3ccccc32)n1 [Compound 646]", "EGFR (Homo sapiens, UniProt P00533)", "> 19.8 µM"),
    ("COCCOc1ccc(Nc2ncnc(Nc3ccc4[nH]ccc4c3)n2)cc1OCCOC [Compound 321]", "EGFR (Homo sapiens, UniProt P00533)", "< 0.888 µM"),
    ("COc1cc(Nc2ncnc(N3CCCc4ccc(C(F)(F)F)cc43)n2)cc(OC)c1OC [Compound 518]", "EGFR (Homo sapiens, UniProt P00533)", "< 0.867 µM"),
    ("Nc1ncnc(Nc2nc(-c3ccc(Cl)cc3)cs2)n1 [Compound 1016]", "EGFR (Homo sapiens, UniProt P00533)", "> 14.8 µM"),
    ("O=c1[nH]c2ccccc2n1-c1ncnc(Nc2cccc(S(=O)(=O)CCO)c2)n1 [Compound 681]", "EGFR (Homo sapiens, UniProt P00533)", "> 10.9 µM"),
    ("COc1cc(Nc2ncnc(-n3c(N)nc4ccccc43)n2)cc(OC)c1OCCN1CCOCC1 [Compound 445]", "EGFR (Homo sapiens, UniProt P00533)", "> 9.14 µM"),
    ("COc1cc(Nc2ncnc(Nc3cc(C)c(O)cc3C)n2)cc(OC)c1OC [Compound 94]", "EGFR (Homo sapiens, UniProt P00533)", "< 1.01 µM"),
    ("Nc1nc2ccccc2n1-c1ncnc(Nc2ccc(-c3ccccc3)cc2)n1 [Compound 480]", "EGFR (Homo sapiens, UniProt P00533)", "1.05 to 6.33 µM"),
    ("COc1cc(Nc2ncnc(Nc3ccc(C)c([N+](=O)[O-])c3)n2)cc(OC)c1OC [Compound 934]", "EGFR (Homo sapiens, UniProt P00533)", "0.97 to 5.82 µM"),
    ("COc1ccc(Nc2ncnc(Nc3cc(OC)c(OC)c(OC)c3)n2)cc1 [Compound 89]", "EGFR (Homo sapiens, UniProt P00533)", "1.04 to 6.26 µM"),
    ("COc1cc(Nc2ncnc(Nc3cccc(C(F)(F)F)c3)n2)cc(OC)c1OC [Compound 614]", "EGFR (Homo sapiens, UniProt P00533)", "< 0.949 µM"),
    ("NC(=O)c1cccc(Nc2ncnc(-n3c(=O)[nH]c4ccccc43)n2)c1 [Compound 420]", "EGFR (Homo sapiens, UniProt P00533)", "> 13 µM"),
    ("Clc1ncnc(Nc2ccc(OCc3ccccc3)cc2)n1 [Compound 153]", "EGFR (Homo sapiens, UniProt P00533)", "> 14.4 µM"),
    ("COc1cc(Nc2ncnc(Nc3cc(OC)c(OCCN4CCOCC4)c(OC)c3)n2)cc(OC)c1OC [Compound 562]", "EGFR (Homo sapiens, UniProt P00533)", "< 0.737 µM"),
]
